Experimental System: T1, human interleukin 12 (human, UniProt P29459 23-219; P29460 23-328)
T1 construct: heterodimer of p35 and p40 linked by a disulfide bridge; also called hIL-12; IL-12
T1 sequence (looked up) 1: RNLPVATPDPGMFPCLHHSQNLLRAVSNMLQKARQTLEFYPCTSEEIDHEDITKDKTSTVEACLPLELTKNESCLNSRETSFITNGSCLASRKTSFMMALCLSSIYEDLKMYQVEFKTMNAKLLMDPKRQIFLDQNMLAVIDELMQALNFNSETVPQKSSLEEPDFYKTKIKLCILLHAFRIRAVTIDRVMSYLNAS
T1 sequence (looked up) 2: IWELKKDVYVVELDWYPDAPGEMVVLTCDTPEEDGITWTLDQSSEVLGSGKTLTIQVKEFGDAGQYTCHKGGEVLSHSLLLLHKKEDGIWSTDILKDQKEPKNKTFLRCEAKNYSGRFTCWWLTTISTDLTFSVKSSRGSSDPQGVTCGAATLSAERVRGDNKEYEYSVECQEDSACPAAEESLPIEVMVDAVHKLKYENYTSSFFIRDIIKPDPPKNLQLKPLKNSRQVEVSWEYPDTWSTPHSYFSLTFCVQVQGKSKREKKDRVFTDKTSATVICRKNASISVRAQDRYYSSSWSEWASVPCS
Assay Name: SPR (BIAcore)
Quantity Measured: koff (s⁻¹)
Just the number please, in s⁻¹, no unit attached.

{"Binder": "73-G6 (antibody, V domains shown) VH: QVQLVQSGGGVVQPGRSLRLSCAASGFTFSSYGMHWVRQAPGKGLEWVAFIRYDGSNKYYADSVKGRFTISRDNSKNTLYLQMKSLRAEDTAVYYCTTSGSYDYWGQGTMVTVSS VL: SYVLTQPPSVSGTPGQRVTISCSGGRSNIGSNTVKWYQQLPGTAPKLLIYGNDQRPSGVPDRFSGSKSGTSASLAITGVQAEDEADYYCQSYNTDFTGSRVFGTGTKVTVLG", "koff (s⁻¹)": 0.0063}
{"Binder": "73-D4 (antibody, V domains shown) VH: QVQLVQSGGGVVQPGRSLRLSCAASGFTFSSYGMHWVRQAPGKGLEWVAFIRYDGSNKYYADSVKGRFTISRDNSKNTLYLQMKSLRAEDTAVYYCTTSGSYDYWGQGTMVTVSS VL: SYVLTQPPSVSGTPGQRVTISCSGGRSNIGSNTVKWYQQLPGTAPKLLIYGNDQRPSGVPDRFSGSKSGTSASLAITGVQAEDEADYYCHSYDTKFTGSRVFGTGTKVTVLG", "koff (s⁻¹)": 0.00536}

Problem: Dear colleague, I am looking for the recorded koff of the following binder: 73-E3 (antibody, V domains shown) VH: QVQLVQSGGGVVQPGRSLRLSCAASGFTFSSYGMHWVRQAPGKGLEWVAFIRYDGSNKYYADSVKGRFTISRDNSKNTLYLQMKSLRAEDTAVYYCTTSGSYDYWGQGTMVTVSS VL: SYVLTQPPSVSGTPGQRVTISCSGGRSNIGSNTVKWYQQLPGTAPKLLIYGNDQRPSGVPDRFSGSKSGTSASLAITGVQAEDEADYYCQSYDSDFTGSRVFGTGTKVTVLG
Solution: 0.00498
